Target: GalR1 (Homo sapiens, UniProt P47211)
Sequence (P47211 whole entry): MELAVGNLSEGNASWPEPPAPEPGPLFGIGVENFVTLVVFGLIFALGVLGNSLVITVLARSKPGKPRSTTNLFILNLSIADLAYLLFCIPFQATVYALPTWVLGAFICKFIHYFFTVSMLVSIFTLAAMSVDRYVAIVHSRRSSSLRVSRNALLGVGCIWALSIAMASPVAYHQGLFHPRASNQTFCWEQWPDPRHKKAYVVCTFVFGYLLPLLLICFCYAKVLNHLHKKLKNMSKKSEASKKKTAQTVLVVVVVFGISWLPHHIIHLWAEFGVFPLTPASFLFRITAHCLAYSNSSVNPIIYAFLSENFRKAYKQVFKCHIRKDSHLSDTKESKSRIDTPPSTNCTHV
Assay: cAMP HTRF assay, CHO GalR1 cells
Assay type: cell-based
Set-up: expressed in transfected cells; host or cells: CHO (Flp-In, pcDNA5/FRT)
pEC50: −log10 of the molar value. Non-standard residues stand in square brackets, D forms with d. Residues, ends and D or L forms follow the SMILES beside them. *: point of attachment. Fmoc = O=C(OCC1c2ccccc2-c2ccccc21)*; Cha = N[C@@H](CC1CCCCC1)C(=O)O; AMC = Cc1cc(=O)oc2cc(N*)ccc12
Readout type: pEC50

Please tell me: pEC50 of Cc1cc(=O)oc2cc(NC(=O)[C@H](CCCCN)NC(=O)[C@H](CC3CCCCC3)NC(=O)OCC3c4ccccc4-c4ccccc43)ccc12 [Galnon, reference compound] (Fmoc-[Cha]-Lys-{AMC}) , system GalR1 (Homo sapiens, UniProt P47211)? < 6.00

---

Biological target: GALR2 (Homo sapiens, UniProt O43603)
Sequence (O43603 1-387): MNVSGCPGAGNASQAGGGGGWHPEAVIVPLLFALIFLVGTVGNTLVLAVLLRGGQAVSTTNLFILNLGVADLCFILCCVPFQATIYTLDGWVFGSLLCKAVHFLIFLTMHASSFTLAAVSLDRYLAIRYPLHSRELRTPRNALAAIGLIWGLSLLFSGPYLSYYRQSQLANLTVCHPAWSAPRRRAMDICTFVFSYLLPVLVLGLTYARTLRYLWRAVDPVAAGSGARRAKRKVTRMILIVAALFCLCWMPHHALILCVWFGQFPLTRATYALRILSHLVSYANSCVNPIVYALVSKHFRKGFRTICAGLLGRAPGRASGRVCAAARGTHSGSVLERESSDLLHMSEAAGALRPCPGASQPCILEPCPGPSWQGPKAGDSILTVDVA
Assay: Calcium assay, CHO GalR2 cells (FLIPR)
Details: Table 2; mean +/− standard deviation, n ≥ 3
Readout type: GalR2 Calcium, mean pEC50

>>> value("Gal2-30FC: galanin 2-30, AEAAAKEAAAKA linker, human IgG1 FC; SEQ ID NO: 28")
"6.6 +/− 0.3"
>>> value("Gal2-24FC: galanin 2-24, AEAAAKEAAAKA linker, human IgG1 FC; SEQ ID NO: 27")
"6.9 +/− 0.3"
>>> value("Gal2-18FC: galanin 2-18, AEAAAKEAAAKA linker, human IgG1 FC; SEQ ID NO: 26")
"6.7 +/− 0.1"

Reported GalR2 Calcium, mean pEC50 for Gal2-12FC: galanin 2-12, AEAAAKEAAAKA linker, human IgG1 FC; SEQ ID NO: 25 : what is it? 6.3 +/− 0.3

Reported GalR2 Calcium, mean pEC50 for Gal2-13FC: galanin 2-13, AEAAAKEAAAKA linker, human IgG1 FC; SEQ ID NO: 7 : what is it? 6.3 +/− 0.3

---

Molecular target: GALR2 (Homo sapiens, UniProt O43603)
Experiment: β-arrestin recruitment, PathHunter CHO-K1 GALR2 cells
Format: cell-based
Non-standard residues stand in square brackets, D forms with d. Residues, ends and D or L forms follow the SMILES beside them. *: point of attachment. Fmoc = O=C(OCC1c2ccccc2-c2ccccc21)*; Cha = N[C@@H](CC1CCCCC1)C(=O)O; AMC = Cc1cc(=O)oc2cc(N*)ccc12
Readout type: EC50
Enter the number, and then the unit.

Please tell me: EC50 of Cc1cc(=O)oc2cc(NC(=O)[C@H](CCCCN)NC(=O)[C@H](CC3CCCCC3)NC(=O)OCC3c4ccccc4-c4ccccc43)ccc12 [Galnon, reference compound] (Fmoc-[Cha]-Lys-{AMC}) , system GALR2 (Homo sapiens, UniProt O43603)? 158 µM
